Ref: patent US6413935

# Assayed system: mouse class II IE^d, purified from A20 cells (mouse)
# Sequence (P01904 26-255, chain 1 of 2): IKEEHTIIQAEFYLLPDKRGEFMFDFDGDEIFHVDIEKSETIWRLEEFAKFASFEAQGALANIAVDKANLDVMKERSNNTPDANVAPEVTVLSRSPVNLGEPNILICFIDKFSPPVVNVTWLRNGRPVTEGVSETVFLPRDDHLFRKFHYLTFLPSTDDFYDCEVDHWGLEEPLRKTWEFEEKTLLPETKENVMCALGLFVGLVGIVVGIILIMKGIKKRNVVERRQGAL
# Sequence (P01915 32-264, chain 2 of 2, further chain): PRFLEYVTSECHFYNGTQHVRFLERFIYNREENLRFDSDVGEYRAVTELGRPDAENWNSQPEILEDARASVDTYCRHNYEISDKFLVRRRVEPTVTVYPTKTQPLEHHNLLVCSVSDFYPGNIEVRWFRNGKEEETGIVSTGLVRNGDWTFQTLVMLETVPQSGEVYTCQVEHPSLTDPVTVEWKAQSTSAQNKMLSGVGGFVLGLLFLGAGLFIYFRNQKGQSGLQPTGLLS
# Protocol description: 125I-peptide inhibition, purified class II
Non-standard residues stand in square brackets, D forms with d. No end group written: not given here. Cha = N[C@@H](CC1CCCCC1)C(=O)O
Measurement type: pIC50
Numbers only, as −log10 of the molar value.

Please give pIC50 for each item listed below.
1. [dA]A[Cha]IAAATLKAA[dA] [906.11]
2. YLEDARRLKAIYEKKK (modifications not checked) [lambda rep 12-26]

[out]
7.89
6.77

Please give pIC50 for each item listed below.
1. NTDGSTDYGILQINSR (modifications not checked) [HEL46-61]
2. [dA]A[Cha]VAAATLKAA[dA] [906.09]

[out]
1. 5.07
2. 7.51
